Molecular target: Recombinant human JAK2 catalytic domain (Homo sapiens (Human))
Sequence (O60674 808-1132): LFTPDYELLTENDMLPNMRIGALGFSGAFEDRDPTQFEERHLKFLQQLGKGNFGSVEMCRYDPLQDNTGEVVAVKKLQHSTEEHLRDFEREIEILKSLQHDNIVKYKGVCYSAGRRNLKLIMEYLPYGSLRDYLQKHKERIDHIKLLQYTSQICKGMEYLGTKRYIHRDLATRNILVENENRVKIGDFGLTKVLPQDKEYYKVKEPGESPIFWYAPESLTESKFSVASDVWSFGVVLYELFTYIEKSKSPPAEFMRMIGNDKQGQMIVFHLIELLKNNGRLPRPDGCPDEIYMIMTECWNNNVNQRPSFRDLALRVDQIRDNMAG
Assay: JAK2 inhibition assay
Assay type: biochemical
Conditions: semi-quantitative score
I'd appreciate it if you could supply IC50 values for the items below.

INPUT: Can you look up the measured IC50 of O=C(Nc1nc2cccc(-c3ccc(NS(=O)(=O)Cc4ccccc4)cc3)n2n1)C1CC1 [Compound 77] for me?
OUTPUT: 101 to 500 nM

INPUT: Param item: CN(C)C1CCCN(C(=O)c2ccc(-c3cccc4nc(NC(=O)C5CC5)nn34)cc2)C1 (stereo not shown) [Compound 269]
OUTPUT: > 1000 nM

INPUT: Now try CN(C(=O)c1ccc(-c2cccc3nc(NC(=O)C4CC4)nn23)cc1)c1ccccc1 [Compound 30] .
OUTPUT: < 100 nM

INPUT: Then this compound: O=C(Nc1cccnn1)c1ccc(-c2cccc3nc(NC(=O)C4CC4)nn23)cc1 [Compound 221]
OUTPUT: 101 to 500 nM

###

Test: Caco2 permeability (bi-directional)
Format: in vitro ADME, human
Conditions: human, pH 7.4; Caco-2, apical to basolateral; read-out: Papp (A2B)
So I've got a bunch of compounds here, and I need their Papp A→B at 1 h, 10 µM values.
Put down the number, then write its unit next to it.

INPUT: What Papp A→B at 1 h, 10 µM value was documented for this compound, O=C(Nc1nc2cccc(-c3ccc(C(=O)N4CCCN(Cc5ccccc5)CC4)cc3)n2n1)C1CC1 ?
OUTPUT: 18.2 ×10⁻⁶ cm/s

INPUT: CC1(C)CCCN(C(=O)c2ccc(-c3cccc4nc(NC(=O)C5CC5)nn34)cc2)C1 , same question.
OUTPUT: 6.95 ×10⁻⁶ cm/s

INPUT: Let us now turn to O=C(NCCc1ccccc1)c1ccc(-c2cccc3nc(NC(=O)C4CC4)nn23)cc1
OUTPUT: 20.9 ×10⁻⁶ cm/s

INPUT: # repeat for O=C(NCc1cccc(F)c1)c1ccc(-c2cccc3nc(NC(=O)C4CC4)nn23)cc1
OUTPUT: 7.78 ×10⁻⁶ cm/s

###

Target: Recombinant human JAK1 catalytic domain (Homo sapiens (Human))
Sequence (P23458 850-1154): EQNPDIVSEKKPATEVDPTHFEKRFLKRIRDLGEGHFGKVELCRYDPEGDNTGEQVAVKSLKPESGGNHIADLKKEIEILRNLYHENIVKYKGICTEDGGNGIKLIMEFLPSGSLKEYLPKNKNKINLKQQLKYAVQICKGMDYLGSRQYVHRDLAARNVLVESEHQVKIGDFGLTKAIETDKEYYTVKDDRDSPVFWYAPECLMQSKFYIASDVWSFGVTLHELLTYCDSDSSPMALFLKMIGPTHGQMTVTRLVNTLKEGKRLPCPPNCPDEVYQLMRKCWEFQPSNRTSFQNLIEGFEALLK
Test: JAK1 inhibition assay
Format: biochemical
Conditions: semi-quantitative score
ENDPOINT LABEL: IC50

INPUT: IC50 of O=C(Nc1nc2cccc(-c3cnc(N4CCOCC4)nc3)n2n1)C1CC1 on Recombinant human JAK1 catalytic domain (Homo sapiens (Human))?
OUTPUT: > 1000 nM

INPUT: Likewise for O=C(Nc1nc2cccc(-c3ccc4c(ccn4Cc4ccccc4)c3)n2n1)C1CC1 ?
OUTPUT: < 100 nM

INPUT: Same lookup for CC(C)(C)C1CCN(C(=O)c2ccc(-c3cccc4nc(NC(=O)C5CC5)nn34)cc2)CC1 , please.
OUTPUT: 101 to 500 nM

INPUT: What about this compound? O=C(Nc1nc2cccc(-c3ccc(CNc4ccc(N5CCOCC5)nc4)cc3)n2n1)C1CC1
OUTPUT: 101 to 500 nM

INPUT: Quick one: COC1CCN(Cc2ccc(-c3cccc4nc(NC(=O)C5CC5)nn34)cc2)CC1
OUTPUT: < 100 nM

INPUT: And the next one, NC(=O)C1CCN(Cc2ccc(-c3cccc4nc(NC(=O)C5CC5)nn34)cc2)CC1 ?
OUTPUT: 101 to 500 nM

INPUT: Next up: O=C(NC1CCCCC1)c1ccc(-c2cccc3nc(NC(=O)C4CC4)nn23)cc1
OUTPUT: 101 to 500 nM

INPUT: What about this compound? CN(Cc1ccccc1)c1ccc(-c2cccc3nc(NC(=O)C4CC4)nn23)cc1
OUTPUT: < 100 nM

INPUT: Now the same for CC(=O)N(C)C1CN(Cc2ccc(-c3cccc4nc(NC(=O)C5CC5)nn34)cc2)C1
OUTPUT: > 1000 nM

INPUT: Can you check O=C(Nc1nc2cccc(-c3ccc(OCc4nnn[nH]4)cc3)n2n1)C1CC1 next?
OUTPUT: 101 to 500 nM

INPUT: Then this compound: CCOCC1CCN(C(=O)c2ccc(-c3cccc4nc(NC(=O)C5CC5)nn34)cc2)CC1
OUTPUT: 101 to 500 nM

INPUT: Request: O=C(NCCOc1ccccc1)c1ccc(-c2cccc3nc(NC(=O)C4CC4)nn23)c(F)c1
OUTPUT: < 100 nM

INPUT: O=C(Nc1nc2cccc(-c3ccc(CN4CCC(F)(F)CC4)cc3)n2n1)C1CC1 , same question.
OUTPUT: < 100 nM

INPUT: Repeat for the following compound: O=C(Nc1nc2cccc(-c3ccc(C(=O)N4CCOCC4)cc3)n2n1)C1CC1
OUTPUT: 101 to 500 nM

INPUT: O=C(Nc1nc2cccc(-c3ccc(-c4cn[nH]c4)cc3)n2n1)C1CC1 ?
OUTPUT: 101 to 500 nM

INPUT: Another: O=C(Nc1ccc(-c2cccc3nc(NC(=O)C4CC4)nn23)cc1)c1ccccc1F
OUTPUT: 101 to 500 nM

###

Target: Recombinant human JAK1 catalytic domain (Homo sapiens (Human))
Experiment: JAK1 inhibition assay
Assay type: biochemical
Conditions: semi-quantitative score
pIC50: −log10 of the molar value.
ENDPOINT LABEL: pIC50

INPUT: Which pIC50 value is on record for CC(=O)NC1CN(C(=O)Cc2ccc(-c3cccc4nc(NC(=O)C5CC5)nn34)cc2)C1 ?
OUTPUT: < 6.00

INPUT: Another molecule to check: O=C(Nc1nc2cccc(-c3ccc(C(=O)N4CCCC(C(=O)N5CCCCC5)C4)cc3)n2n1)C1CC1 (stereo not shown)
OUTPUT: 6.30 to 7.00

INPUT: Likewise for O=C(Nc1nc2cccc(-c3ccc(C(=O)N4CCC(F)CC4)cc3)n2n1)C1CC1 ?
OUTPUT: > 7.00

INPUT: Same lookup for O=C(Nc1nc2cccc(-c3ccc(NCCC4CCOCC4)nc3)n2n1)C1CC1 , please.
OUTPUT: 6.30 to 7.00

INPUT: Do the same for O=C(Nc1nc2cccc(-c3ccc(OCc4ccc(-n5cccn5)cc4)cc3)n2n1)C1CC1 please
OUTPUT: > 7.00

INPUT: Same again, this time with O=C(Nc1nc2cccc(-c3ccc(OCc4ncon4)cc3)n2n1)C1CC1
OUTPUT: > 7.00

INPUT: Query CN(Cc1ccccc1)C1CCN(C(=O)c2ccc(-c3cccc4nc(NC(=O)C5CC5)nn34)cc2)CC1 next
OUTPUT: < 6.00

INPUT: Moving on to O=C(Nc1nc2cccc(-c3ccc(NS(=O)(=O)c4cccnc4)cc3)n2n1)C1CC1
OUTPUT: > 7.00

INPUT: Try this molecule too: O=C(Nc1ccc(-c2cccc3nc(NC(=O)C4CC4)nn23)cc1)c1ccccc1
OUTPUT: > 7.00

INPUT: Okay, and CC1(C)COCCN1Cc1ccc(-c2cccc3nc(NC(=O)C4CC4)nn23)cc1 ?
OUTPUT: 6.30 to 7.00

INPUT: Cool, now COC1CN(C(=O)Cc2ccc(-c3cccc4nc(NC(=O)C5CC5)nn34)cc2)C1
OUTPUT: > 7.00

INPUT: // query: CN1CCN(C(=O)c2ccc(-c3cccc4nc(NC(=O)C5CC5)nn34)cc2)CC1
OUTPUT: > 7.00

INPUT: Another molecule: CC(=O)NC1CCN(C(=O)Cc2ccc(-c3cccc4nc(NC(=O)C5CC5)nn34)cc2)CC1
OUTPUT: 6.00 to 6.30

INPUT: Another molecule to look at: O=C(N[C@@H]1CCN(Cc2ccccc2)C1)c1ccc(-c2cccc3nc(NC(=O)C4CC4)nn23)cc1
OUTPUT: > 7.00

INPUT: Again, but for N#Cc1ccc(OC2CN(Cc3ccc(-c4cccc5nc(NC(=O)C6CC6)nn45)cc3)C2)cc1
OUTPUT: > 7.00

INPUT: // query: O=C(Nc1nc2cccc(-c3ccc(C(=O)N4CCC(O)(c5ccc(Cl)cc5)CC4)cc3)n2n1)C1CC1
OUTPUT: 6.30 to 7.00

INPUT: Follow-up entry: COc1ccc(NC(=O)c2ccc(-c3cccc4nc(NC(=O)C5CC5)nn34)cc2)cn1
OUTPUT: > 7.00

INPUT: Note, next up: O=C(NCc1ccc(-c2cccc3nc(NC(=O)C4CC4)nn23)cc1)C1CCC1
OUTPUT: > 7.00

INPUT: Now try O=C(Nc1nc2cccc(-c3ccc(OCc4ccccc4)cc3)n2n1)C1CC1 .
OUTPUT: > 7.00

###

For each of the molecules below, state its IC50.
Target: Recombinant human JAK3 catalytic domain (Homo sapiens (Human), UniProt P52333)
Sequence (P52333 781-1124): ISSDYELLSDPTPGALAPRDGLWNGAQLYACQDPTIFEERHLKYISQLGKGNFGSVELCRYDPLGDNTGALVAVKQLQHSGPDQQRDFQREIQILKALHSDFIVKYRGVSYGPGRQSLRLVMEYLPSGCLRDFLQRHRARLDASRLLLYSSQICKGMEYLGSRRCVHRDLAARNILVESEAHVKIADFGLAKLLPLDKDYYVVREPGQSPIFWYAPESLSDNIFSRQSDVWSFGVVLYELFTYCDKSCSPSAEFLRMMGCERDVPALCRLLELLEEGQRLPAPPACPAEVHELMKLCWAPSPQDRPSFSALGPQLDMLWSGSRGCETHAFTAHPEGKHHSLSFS
Assay: JAK3 inhibition assay
Assay type: biochemical
Settings: semi-quantitative score
Experimental: Plates were washed 6 times with 300 μL per well of a 75 mM phosphoric acid solution and the bottom of the plates was sealed. 40 μL/well of Microscint-20 was added, the top of the plates was sealed and readout was performed using the Topcount (Perkin Elmer). Kinase activity was calculated by subtracting counts per minute (cpm) obtained in the presence of a positive control inhibitor (10 μM staurosporine) from cpm obtained in the presence of vehicle. […]

INPUT: Given the entry CCCc1ccc(S(=O)(=O)Nc2ccc(-c3cccc4nc(NC(=O)C5CC5)nn34)cc2)cc1 [Compound 85] , report its measured IC50.
OUTPUT: > 1 µM

INPUT: Input O=C(Nc1nc2cccc(-c3ccc(OCCn4cccn4)cc3)n2n1)C1CC1 [Compound 98]
OUTPUT: > 1 µM

INPUT: Repeat for the following molecule: O=C(NCCc1ccccc1)c1ccc(-c2cccc3nc(NC(=O)C4CC4)nn23)cc1 [Compound 87]
OUTPUT: 0.101 to 0.5 µM

INPUT: What about this molecule? O=C(Nc1nc2cccc(-c3ccc(NS(=O)(=O)Cc4ccccc4)cc3)n2n1)C1CC1 [Compound 77]
OUTPUT: > 1 µM

INPUT: Cool, now CN1CCN(C(=O)c2ccc(-c3cccc4nc(NC(=O)C5CC5)nn34)cc2)CC1 [Compound 71]
OUTPUT: > 1 µM

INPUT: Follow-up entry: O=C(Nc1nc2cccc(-c3ccc(OCc4ccccc4)nc3)n2n1)C1CC1 [Compound 57]
OUTPUT: 0.501 to 1 µM

INPUT: Also Cn1ccc(COc2ccc(-c3cccc4nc(NC(=O)C5CC5)nn34)cc2)n1 [Compound 48] , if possible.
OUTPUT: > 1 µM

INPUT: Field entry: CN1CCN(c2ccc(-c3cccc4nc(NC(=O)C5CC5)nn34)cc2)CC1 [Compound 1]
OUTPUT: > 1 µM

INPUT: Try this molecule too: NC(=O)c1ccccc1NCc1ccc(-c2cccc3nc(NC(=O)C4CC4)nn23)cc1 [Compound 306]
OUTPUT: < 0.1 µM

INPUT: # repeat for O=C(NCc1ccccc1)c1ccc(-c2cccc3nc(NC(=O)C4CC4)nn23)cc1 [Compound 56]
OUTPUT: > 1 µM
